# Substrate: C[C@H]1O[C@H](OP(=O)(O)OP(=O)(O)OC[C@H]2O[C@@H](n3cnc4c(=O)[nH]c(N)nc43)[C@H](O)[C@@H]2O)[C@@H](O)[C@@H](O)[C@@H]1N
# experimental.details: discontinuous HPLC assay
# Assay type: biochemical, Caulobacter vibrioides
# run.conditions: pH 8.0, 25 °C, acetyl CoA co-substrate
# Km annotations

protein	result.unit	Km
PerB (Caulobacter vibrioides) (protein) MSASLAIGGVVIIGGGGHAKVVIESLRACGETVAAIVDADPTRRAVLGVPVVGDDLALPMLREQGLSRLFVAIGDNRLRQKLGRKARDHGFSLVNAIHPSAVVSPSVRLGEGVAVMAGVAINADSWIGDLAIINTGAVVDHDCRLGAACHLGPASALAGGVSVGERAFLGVGARVIPGVTIGADTIVGAGGVVVRDLPDSVLAIGVPAKIKGDRS	µM	87
PerB (Caulobacter vibrioides; D142N) (protein) MSASLAIGGVVIIGGGGHAKVVIESLRACGETVAAIVDADPTRRAVLGVPVVGDDLALPMLREQGLSRLFVAIGDNRLRQKLGRKARDHGFSLVNAIHPSAVVSPSVRLGEGVAVMAGVAINADSWIGDLAIINTGAVVDHNCRLGAACHLGPASALAGGVSVGERAFLGVGARVIPGVTIGADTIVGAGGVVVRDLPDSVLAIGVPAKIKGDRS	µM	110
PerB (Caulobacter vibrioides; H141N) (protein) MSASLAIGGVVIIGGGGHAKVVIESLRACGETVAAIVDADPTRRAVLGVPVVGDDLALPMLREQGLSRLFVAIGDNRLRQKLGRKARDHGFSLVNAIHPSAVVSPSVRLGEGVAVMAGVAINADSWIGDLAIINTGAVVDNDCRLGAACHLGPASALAGGVSVGERAFLGVGARVIPGVTIGADTIVGAGGVVVRDLPDSVLAIGVPAKIKGDRS	µM	150
PerB (Caulobacter vibrioides; H141A) (protein) MSASLAIGGVVIIGGGGHAKVVIESLRACGETVAAIVDADPTRRAVLGVPVVGDDLALPMLREQGLSRLFVAIGDNRLRQKLGRKARDHGFSLVNAIHPSAVVSPSVRLGEGVAVMAGVAINADSWIGDLAIINTGAVVDADCRLGAACHLGPASALAGGVSVGERAFLGVGARVIPGVTIGADTIVGAGGVVVRDLPDSVLAIGVPAKIKGDRS	µM	200
